src = paper PMC11579378

# system-under-test: ACE1 (Homo sapiens)
# Sequence (P12821 30-1306): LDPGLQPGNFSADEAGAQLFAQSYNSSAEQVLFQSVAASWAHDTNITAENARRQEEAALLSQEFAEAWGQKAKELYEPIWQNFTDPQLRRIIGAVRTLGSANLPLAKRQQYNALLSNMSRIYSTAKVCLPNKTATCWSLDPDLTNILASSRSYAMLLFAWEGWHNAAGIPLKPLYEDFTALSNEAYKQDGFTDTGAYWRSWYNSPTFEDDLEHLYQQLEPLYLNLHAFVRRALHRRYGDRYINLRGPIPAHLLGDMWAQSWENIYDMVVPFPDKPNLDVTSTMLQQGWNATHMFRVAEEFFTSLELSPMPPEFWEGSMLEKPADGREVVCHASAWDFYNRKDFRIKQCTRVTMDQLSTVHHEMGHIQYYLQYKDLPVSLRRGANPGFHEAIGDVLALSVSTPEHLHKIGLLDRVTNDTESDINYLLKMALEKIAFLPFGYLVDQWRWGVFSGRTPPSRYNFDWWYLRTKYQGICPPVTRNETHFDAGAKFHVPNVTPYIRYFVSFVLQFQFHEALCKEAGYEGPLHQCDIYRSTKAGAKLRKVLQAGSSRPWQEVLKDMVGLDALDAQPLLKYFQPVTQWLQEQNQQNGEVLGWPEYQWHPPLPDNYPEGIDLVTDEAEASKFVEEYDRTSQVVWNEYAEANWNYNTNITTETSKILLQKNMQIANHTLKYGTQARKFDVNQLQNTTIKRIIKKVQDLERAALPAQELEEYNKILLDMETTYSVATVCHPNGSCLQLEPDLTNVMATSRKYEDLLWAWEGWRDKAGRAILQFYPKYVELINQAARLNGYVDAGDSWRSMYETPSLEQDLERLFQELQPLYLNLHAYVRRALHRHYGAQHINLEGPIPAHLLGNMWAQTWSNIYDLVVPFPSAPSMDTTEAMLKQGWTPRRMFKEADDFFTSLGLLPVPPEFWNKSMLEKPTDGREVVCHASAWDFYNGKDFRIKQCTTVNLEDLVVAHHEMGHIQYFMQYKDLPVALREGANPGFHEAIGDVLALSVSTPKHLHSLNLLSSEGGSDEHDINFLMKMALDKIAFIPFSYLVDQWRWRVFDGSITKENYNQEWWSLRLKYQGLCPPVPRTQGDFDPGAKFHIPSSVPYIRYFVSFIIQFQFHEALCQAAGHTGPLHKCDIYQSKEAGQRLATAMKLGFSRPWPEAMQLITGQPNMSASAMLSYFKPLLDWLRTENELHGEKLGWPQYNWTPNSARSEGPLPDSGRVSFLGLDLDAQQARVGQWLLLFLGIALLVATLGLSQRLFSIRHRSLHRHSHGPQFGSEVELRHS
# test-details: In vitro ACE1 inhibition assay
# Assay type: biochemical
Where no end group is shown, it is not given here.
recorded-endpoint: pIC50
pIC50 (log units): -log10 of the concentration in mol/L.

## Input State measured pIC50 of the sequence VDPVNFKFLSH [VD-Hp-F, VD-Hemopressin-F] with ACE1 (Homo sapiens).
## Output 4.97

## Input State measured pIC50 of the sequence RVDPVNFKFLSH [RVD-Hp-F, RVD-Hemopressin-F] with ACE1 (Homo sapiens).
## Output 4.91

## Input State measured pIC50 of the sequence RVDPVNFKLLSH [RVD-Hp-L, RVD-Hemopressin-L] with ACE1 (Homo sapiens).
## Output 5.60

## Input State measured pIC50 of the sequence VDPVNFKLLSH [VD-Hp-L, VD-Hemopressin-L] with ACE1 (Homo sapiens).
## Output 5.34
